Target: P2Y purinoceptor 1 (Meleagris gallopavo)
Assay: Agonist activity at turkey P2Y purinoceptor 1 expressed in human 1321N1 cells assessed as increase in intracellular calcium concentration at 100 uM by spectrofluorimetry
Assay type: functional, cell-based
Active and inactive are the calls of the source. No cut-off for these calls is given here.

molecule	Activity
BP(=O)(OP(=O)(O)OC[C@H]1O[C@@H](n2cnc3c(N)ncnc32)[C@H](O)[C@@H]1O)OP(=O)(O)OP(=O)(O)OC[C@H]1O[C@@H](n2ccc(=O)[nH]c2=O)[C@H](O)[C@@H]1O.CCCCN(CCCC)CCCC.CCCCN(CCCC)CCCC.CCCCN(CCCC)CCCC.CCCCN(CCCC)CCCC (stereo in doubt; 8A)	Active
BP(=O)(OP(=O)(O)OC[C@H]1O[C@@H](n2ccc(=O)[nH]c2=O)[C@H](O)[C@@H]1O)OP(=O)(O)OP(=O)(O)OC[C@H]1O[C@@H](n2ccc(=O)[nH]c2=O)[C@H](O)[C@@H]1O.CCCCN(CCCC)CCCC.CCCCN(CCCC)CCCC.CCCCN(CCCC)CCCC.CCCCN(CCCC)CCCC (stereo in doubt; 7A)	Active

* * *

Assay: Stability of the compound assessed as human e-NPP1-mediated hydrolysis at pH 8.5 after 20 mins by HPLC analysis
Assay type: ADME
Conditions: buffer, pH 8.5, 20 min; 20 min
As shown below, each of these compounds has a reported Drug degradation value.
measure: Drug degradation (%)

compound	measure	quantitative_readout
BP(=O)(OC[C@H]1O[C@@H](n2ccc(=O)[nH]c2=O)[C@H](O)[C@@H]1O)OP(=O)(O)OP(=O)(O)OC[C@H]1O[C@@H](n2ccc(=O)[nH]c2=O)[C@H](O)[C@@H]1O.CCCCN(CCCC)CCCC.CCCCN(CCCC)CCCC.CCCCN(CCCC)CCCC (stereo in doubt; 11B)	Drug degradation	6
BP(=O)(OP(=O)(O)OC[C@H]1O[C@@H](n2ccc(=O)[nH]c2=O)[C@H](O)[C@@H]1O)OP(=O)(O)OP(=O)(O)OC[C@H]1O[C@@H](n2ccc(=O)[nH]c2=O)[C@H](O)[C@@H]1O.CCCCN(CCCC)CCCC.CCCCN(CCCC)CCCC.CCCCN(CCCC)CCCC.CCCCN(CCCC)CCCC (stereo in doubt; 7B)	Drug degradation	3.5
BP(=O)(OC[C@H]1O[C@@H](n2cnc3c(N)ncnc32)[C@H](O)[C@@H]1O)OP(=O)(O)OP(=O)(O)OP(=O)(O)OC[C@H]1O[C@@H](n2cnc3c(N)ncnc32)[C@H](O)[C@@H]1O.CCCCN(CCCC)CCCC.CCCCN(CCCC)CCCC.CCCCN(CCCC)CCCC.CCCCN(CCCC)CCCC (stereo in doubt; 12B)	Drug degradation	17
BP(=O)(OC[C@H]1O[C@@H](n2cnc3c(N)ncnc32)[C@H](O)[C@@H]1O)OP(=O)(O)OP(=O)(O)OC[C@H]1O[C@@H](n2cnc3c(N)ncnc32)[C@H](O)[C@@H]1O.CCCCN(CCCC)CCCC.CCCCN(CCCC)CCCC.CCCCN(CCCC)CCCC (stereo in doubt; 10A)	Drug degradation	0
BP(=O)(OC[C@H]1O[C@@H](n2ccc(=O)[nH]c2=O)[C@H](O)[C@@H]1O)OP(=O)(O)OP(=O)(O)OP(=O)(O)OC[C@H]1O[C@@H](n2ccc(=O)[nH]c2=O)[C@H](O)[C@@H]1O.CCCCN(CCCC)CCCC.CCCCN(CCCC)CCCC.CCCCN(CCCC)CCCC.CCCCN(CCCC)CCCC (stereo in doubt; 13A)	Drug degradation	3.5

Cited source: ChEMBL document CHEMBL1949525
